experiment: self-splicing fitness, log relative to wild type (ln ratio); higher = more splicing; Tetrahymena group I intron in knt gene, E. coli kanamycin selection, DiMSum; sequences stand for … in CUCUCU…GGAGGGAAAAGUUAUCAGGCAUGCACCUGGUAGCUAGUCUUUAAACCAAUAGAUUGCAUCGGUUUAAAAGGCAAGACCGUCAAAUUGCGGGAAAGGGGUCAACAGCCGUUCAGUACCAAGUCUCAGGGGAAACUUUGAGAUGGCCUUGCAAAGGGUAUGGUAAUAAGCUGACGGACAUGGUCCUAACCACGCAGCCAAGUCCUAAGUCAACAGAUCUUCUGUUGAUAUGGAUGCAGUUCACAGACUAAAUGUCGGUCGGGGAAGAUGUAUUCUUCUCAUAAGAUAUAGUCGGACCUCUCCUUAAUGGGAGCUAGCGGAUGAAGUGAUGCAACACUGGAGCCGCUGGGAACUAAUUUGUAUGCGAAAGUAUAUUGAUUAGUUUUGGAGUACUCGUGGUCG; details: 37 °C;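 further: selection with 25 µg/mL kanamycin versus none on LB agar overnight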
Please provide measured self-splicing fitness (ln) for the entries that follow.
One number for each entry.

Reference set (2 entries):
>>> readout_value("CAUAAGCAAUAUUACGCGUC")
-2.15
>>> readout_value("AUUUAGCAAUAUUACGAUGA")
-0.68

Here are 4 sequences. What values of self-splicing fitness (ln) were reported for them?
1. UCCUAGCAAUAUUACGAGUG
2. CCGUAGCAAUAUUACGGCUU
3. UCCGAGCAAUAUUACGUCGC
4. UUCUAGCAAUAUUACGCAAG

**Result**
1: -0.96; 2: -3.06; 3: -1.24; 4: -0.437

====

experiment: self-splicing fitness, log relative to wild type (ln ratio); higher = more splicing; Tetrahymena group I intron in knt gene, E. coli kanamycin selection, DiMSum; sequences stand for … in CUCUCU…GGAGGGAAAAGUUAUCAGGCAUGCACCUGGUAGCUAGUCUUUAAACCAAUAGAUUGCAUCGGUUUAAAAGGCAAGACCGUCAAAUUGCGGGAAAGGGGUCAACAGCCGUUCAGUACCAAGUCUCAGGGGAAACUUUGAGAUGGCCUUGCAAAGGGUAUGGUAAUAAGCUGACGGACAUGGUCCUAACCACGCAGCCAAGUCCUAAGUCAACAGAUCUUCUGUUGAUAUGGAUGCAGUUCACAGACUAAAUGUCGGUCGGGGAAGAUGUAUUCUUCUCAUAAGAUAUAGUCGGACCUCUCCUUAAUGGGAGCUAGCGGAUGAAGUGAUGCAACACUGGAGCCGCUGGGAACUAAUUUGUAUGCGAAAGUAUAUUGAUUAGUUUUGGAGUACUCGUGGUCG; details: 30 °C
MEASURED PROPERTY: self-splicing fitness (ln)
One number for each entry.

Reference set (10 entries):
>>> readout_value("AGUGAGCAAUAUUACGAAAC")
-2.97
>>> readout_value("GGCCAGCAAUAUUACGUCUU")
-0.247
>>> readout_value("GUGCAGCAAUAUUACGUAGC")
-1.44
>>> readout_value("CGAGAGCAAUAUUACGUCUG")
-1.33
>>> readout_value("UUGAAGCAAUAUUACGUCCA")
0.231
>>> readout_value("GAAUAGCAAUAUUACGCCGG")
-2.65
>>> readout_value("GCGAAGCAAUAUUACGUACG")
-2.46
>>> readout_value("CCUUAGCAAUAUUACGUUCA")
-3.3
>>> readout_value("CCAUAGCAAUAUUACGGUUU")
-4.54
>>> readout_value("AAAUAGCAAUAUUACGAUAC")
-2.95

Here are 4 sequences. What values of self-splicing fitness (ln) were reported for them?
1. CCGAAGCAAUAUUACGCUUG
2. GGAUAGCAAUAUUACGUGGA
3. CGUAAGCAAUAUUACGGGCG
4. GUAAAGCAAUAUUACGGUCA

**Result**
[-3.79, -3.31, -2.87, -0.163]

Here are 4 sequences. What values of self-splicing fitness (ln) were reported for them?
1. AACGAGCAAUAUUACGUUUA
2. UAUGAGCAAUAUUACGUGUG
3. GCCCAGCAAUAUUACGGAAU
4. AACCAGCAAUAUUACGACCC

**Result**
[-3.12, -2.41, -0.828, -0.941]

Here are 3 sequences. What values of self-splicing fitness (ln) were reported for them?
1. GUGUAGCAAUAUUACGAGGU
2. CCAAAGCAAUAUUACGUUCU
3. UUUCAGCAAUAUUACGGAAC

**Result**
-2.33
-3.78
-1.24

Here are 3 sequences. What values of self-splicing fitness (ln) were reported for them?
1. CAGUAGCAAUAUUACGUCUA
2. GUUAAGCAAUAUUACGAAAA
3. AUCGAGCAAUAUUACGGCAC

**Result**
1: -0.56; 2: -1.13; 3: -3.16

meta.source: the supplement of paper PMC7877785
